Would you kindly list MIC for each of these molecules?
test system: spores of ATCC BBA1870 strain; assay: Inhibition of germination of C. difficile spores (MIC), strain ATCC BBA1870; format: cell-based; settings: Clostridioides difficile, ATCCBBA1870STRAIN, 1 h; strain 1870; sodium taurocholate as germinant, BHIS medium, 37° C., OD580 for 60 min; read-out: MIC (minimum concentration that completely inhibits spore germination)
Provide the reading as a plain figure in µM.

[ask] Could you tell me which MIC is on file for C[C@H](CC(=O)N[C@H](C)c1cccs1)[C@H]1CC[C@H]2[C@@H]3C(=O)C[C@@H]4CC(=O)CC[C@]4(C)[C@H]3CC[C@]12C ?
[reply] 1

[ask] Could you tell me which MIC is on file for CC[C@@H](NC(=O)C[C@@H](C)[C@H]1CC[C@H]2[C@@H]3[C@H](OC(=O)CCC(=O)O)C[C@@H]4CC(=O)CC[C@]4(C)[C@H]3CC[C@]12C)c1ccc(Br)s1 ?
[reply] 2

[ask] Could you tell me which MIC is on file for CC[C@@H](NC(=O)C[C@@H](C)[C@H]1CC[C@H]2[C@@H]3[C@H](OC(=O)CCCCCCC(=O)O)C[C@@H]4CC(=O)CC[C@]4(C)[C@H]3CC[C@]12C)c1ccc(Br)s1 ?
[reply] 0.25

[ask] Could you tell me which MIC is on file for CC(C)[C@@H](NC(=O)C[C@@H](C)[C@H]1CC[C@H]2[C@@H]3C(=O)C[C@@H]4CC(=O)CC[C@]4(C)[C@H]3CC[C@]12C)c1ccc(C(=O)CCCCCCC(=O)O)s1 ?
[reply] 256

[ask] Could you tell me which MIC is on file for CC[C@@H](NC(=O)C[C@@H](C)[C@H]1CC[C@H]2[C@@H]3[C@H](O)C[C@@H]4C[C@H](O)CC[C@]4(C)[C@H]3CC[C@]12C)c1ccc(Cl)s1 ?
[reply] 1

[ask] Could you tell me which MIC is on file for CC(C)[C@@H](NC(=O)C[C@@H](C)[C@H]1CC[C@H]2[C@@H]3[C@H](O)CC4=CC(=O)CC[C@]4(C)[C@H]3CC[C@]12C)c1ccc(Br)s1 ?
[reply] 0.25

[ask] Could you tell me which MIC is on file for CC[C@@H](NC(=O)C[C@@H](C)[C@H]1CC[C@H]2[C@@H]3[C@H](O)CC4=CC(=O)CC[C@]4(C)[C@H]3CC[C@]12C)c1ccc(Br)s1 ?
[reply] 0.25

[ask] Could you tell me which MIC is on file for CC[C@@H](NC(=O)C[C@@H](C)[C@H]1CC[C@H]2[C@@H]3[C@H](OC(C)=O)C[C@@H]4CC(=O)CC[C@]4(C)[C@H]3CC[C@]12C)c1ccc(Br)s1 ?
[reply] 0.5

[ask] Could you tell me which MIC is on file for CC[C@@H](NC(=O)C[C@@H](C)[C@H]1CC[C@H]2[C@@H]3[C@H](N)C[C@@H]4C[C@H](O)CC[C@]4(C)[C@H]3CC[C@]12C)c1ccc(Cl)s1 ?
[reply] 32
